I'd be grateful if you could share measured pIC50 for these entries.
Tested on: MCF7
Test: Cytotoxicity against human MCF7 cells assessed as reduction in cell viability after 48 hrs by MTT assay
Type: functional, cell-based
Conditions: MCF7, 48 h
# pIC50 is unitless: minus log10 of the molar concentration; print number only

Query: State, in one line, measured pIC50 of `O=[N+]([O-])c1cc(-c2nc3ccc([N+](=O)[O-])cc3[nH]2)cc(-c2nc3ccc([N+](=O)[O-])cc3[nH]2)c1`
Result: 5.92

Query: Name the recorded pIC50 of the item `Clc1ccc2nc(-c3cccc(-c4nc5ccc(Cl)cc5[nH]4)c3)[nH]c2c1` in your answer.
Result: 4.59

Query: Answer with the recorded pIC50 for the molecule listed here: `Brc1ccc2nc(-c3cccc(-c4nc5ccc(Br)cc5[nH]4)c3)[nH]c2c1`
Result: 5.01

###

System: A549
Test: Cytotoxicity against human A549 cells assessed as reduction in cell viability after 48 hrs by MTT assay
Format: functional, cell-based
Settings: A549, 48 h
# if measured IC50 < 20 µM: yes (1)  # else: no (0)

Query: Regarding `O=[N+]([O-])c1cc(-c2nc3ccc([N+](=O)[O-])cc3[nH]2)cc(-c2nc3ccc([N+](=O)[O-])cc3[nH]2)c1` , kindly confirm whether its IC50 is beneath 20 µM.
Result: yes (1)

Query: Decide: IC50 of `COc1cccc2c1C(=O)c1c(O)c3c(c(O)c1C2=O)C[C@@](O)(C(=O)CO)C[C@@H]3O[C@H]1C[C@H](N)[C@H](O)[C@H](C)O1` strictly below 20 µM?
Result: yes (1)

Query: Hello, is IC50 of the following compound strictly smaller than 20 µM? `c1cc(-c2nc3ccccc3[nH]2)cc(-c2nc3ccccc3[nH]2)c1`
Result: no (0)

Query: Please determine if `Brc1ccc2nc(-c3cccc(-c4nc5ccc(Br)cc5[nH]4)c3)[nH]c2c1` is below 20 µM in terms of IC50.
Result: no (0)

Query: Dear colleague, could you confirm whether IC50 of `Fc1ccc2nc(-c3cccc(-c4nc5ccc(F)cc5[nH]4)c3)[nH]c2c1` falls below 20 µM? Thanks.
Result: no (0)

Query: Lab log: compare recorded IC50 with 20 µM; is it strictly lower for `COc1cc(-c2nc3ccc(C(F)(F)F)cc3[nH]2)cc(-c2nc3ccc(C(F)(F)F)cc3[nH]2)c1` ?
Result: yes (1)

Query: Problem: For the compound `FC(F)(F)c1ccc2nc(-c3cccc(-c4nc5ccc(C(F)(F)F)cc5[nH]4)c3)[nH]c2c1` , is IC50 under 20 µM?
Result: yes (1)

Query: API: query returns whether the compound falls strictly under 20 µM in IC50. Query: `Clc1ccc2nc(-c3cccc(-c4nc5ccc(Cl)cc5[nH]4)c3)[nH]c2c1`
Result: no (0)

Query: Please let me know if `COc1cc(-c2nc3ccc([N+](=O)[O-])cc3[nH]2)cc(-c2nc3ccc([N+](=O)[O-])cc3[nH]2)c1` shows IC50 below 20 µM.
Result: yes (1)
